Origin of the recorded values: patent US9353084B2

Ki tested on human BACE1 (Homo sapiens (Human), UniProt P56817): recorded values
Sequence (P56817 46-501): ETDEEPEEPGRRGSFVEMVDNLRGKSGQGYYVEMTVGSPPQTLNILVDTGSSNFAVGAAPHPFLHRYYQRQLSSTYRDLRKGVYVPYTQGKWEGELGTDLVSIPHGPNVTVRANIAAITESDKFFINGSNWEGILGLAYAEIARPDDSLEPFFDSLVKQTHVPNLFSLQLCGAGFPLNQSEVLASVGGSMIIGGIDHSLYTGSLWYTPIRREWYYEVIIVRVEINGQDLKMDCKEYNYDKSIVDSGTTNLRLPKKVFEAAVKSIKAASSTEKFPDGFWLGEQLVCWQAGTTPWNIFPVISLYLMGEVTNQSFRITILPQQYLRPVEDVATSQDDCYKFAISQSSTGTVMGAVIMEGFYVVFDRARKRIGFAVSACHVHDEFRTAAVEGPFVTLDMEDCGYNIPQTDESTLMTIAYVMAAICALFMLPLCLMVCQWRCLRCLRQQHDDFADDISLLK
Counter-ions that a name gives are not always drawn.
Measurement Label: Ki (nM)

Known Ki results, listed for orientation:
| Compound | Recorded Result |
| --- | --- |
| Cc1ncc(C(=O)Nc2ccc(F)c([C@@]3(C)N=C(N)[C@](C)(F)CC3(F)F)c2)o1 [Compound 42, trifluoroacetic acid salt] | 1500 |
| C[C@@]1(F)CC(F)(F)[C@@](C)(c2cc(NC(=O)c3cnc(C(F)F)cn3)ccc2F)N=C1N | 420 |
| [2H]C([2H])([2H])Oc1ccc(C(=O)Nc2ccc(F)c([C@@]3(C)N=C(N)[C@](C)(F)CC3(F)F)c2)nc1 | 91 |
| C[C@]1(F)CC(F)(F)[C@@](C)(c2cc(NC(=O)c3cnc(C(F)F)cn3)ccc2F)N=C1N | 58 |

A: COc1cnc(C(=O)Nc2ccc(F)c([C@@]3(C)N=C(N)[C@@](C)(F)CC3(F)F)c2)cn1
B: C[C@@]1(F)CC(F)(F)[C@@](C)(c2cc(NC(=O)c3ccc(C#N)cn3)ccc2F)N=C1N
C: C[C@]1(F)CC(F)(F)[C@@](C)(c2cc(NC(=O)c3ccc(F)cn3)ccc2F)N=C1N
D: Cc1cn(C)c(C(=O)Nc2ccc(F)c([C@@]3(C)N=C(N)[C@](C)(F)CC3(F)F)c2)n1
E: COc1cnc(C(=O)Nc2ccc(F)c([C@@]3(C)N=C(N)[C@](C)(F)CC3(F)F)c2)cn1
Request: Order the records so the highest Ki appears first and the lowest last. Note for the reader: the ranking is given by listing the labels in the order requested.
Response: D, E, C, B, A

---

In this section we review reported Aβ40 reduction, Plasma Rat values for a set of compounds.
System: Aβ40
Assay Name: Assessment of Aβ40 levels in rat brain and plasma following BACE1 inhibition (ELISA)
Assay type: in vivo
Condition Description: 30 mg/kg p.o., 3 hours post dose, plasma, vs vehicle
Kindly provide the numeric value in % only, without the unit symbol.

Known Aβ40 reduction, Plasma Rat results, listed for orientation:
| Chem Smiles | Unit Symbol | Recorded Result |
| --- | --- | --- |
| C[C@@]1(F)CC(F)(F)[C@@](C)(c2cc(NC(=O)c3cnc(C(F)F)cn3)ccc2F)N=C1N | % | 61 |
| C[C@]1(F)CC(F)(F)[C@@](C)(c2cc(NC(=O)c3ccc(F)cn3)ccc2F)N=C1N | % | 41 |
| COc1cnc(C(=O)Nc2ccc(F)c([C@@]3(C)N=C(N)[C@@](C)(F)CC3(F)F)c2)cn1 | % | 39 |
| Cc1cc(C#N)cnc1C(=O)Nc1ccc(F)c([C@@]2(C)N=C(N)[C@@](C)(F)CC2(F)F)c1 | % | 50 |

Field: next compound
Readout Aβ40 reduction, Plasma Rat for COc1ccc(C(=O)Nc2ccc(F)c([C@@]3(C)N=C(N)[C@@](C)(F)CC3(F)F)c2)nc1 , test system Aβ40, was 49

---

Ki tested on human BACE1 (Homo sapiens (Human)): recorded values
Measurement Label: Ki (nM)

Known Ki results, listed for orientation:
| Chem Smiles | Unit Symbol | Ki |
| --- | --- | --- |
| Cc1ccc(C(=O)Nc2ccc(F)c([C@@]3(C)N=C(N)[C@](C)(F)CC3(F)F)c2)o1 | nM | 520 |
| Cn1cc(Br)nc1C(=O)Nc1ccc(F)c([C@@]2(C)N=C(N)[C@@](C)(F)CC2(F)F)c1 | nM | 100 |
| COc1cnc(C(=O)Nc2ccc(F)c([C@@]3(C)N=C(N)[C@@](C)(F)CC3(F)F)c2)c(F)c1 | nM | 14 |
| Cc1nc(C(=O)Nc2ccc(F)c([C@@]3(C)N=C(N)[C@](C)(F)CC3(F)F)c2)co1 | nM | 210 |
| Cc1nc(C(=O)Nc2ccc(F)c([C@@]3(C)N=C(N)[C@](C)(F)CC3(F)F)c2)no1 | nM | 680 |
| Cc1cc(C#N)cnc1C(=O)Nc1ccc(F)c([C@@]2(C)N=C(N)[C@@](C)(F)CC2(F)F)c1 | nM | 4.3 |

1: C[C@@]1(F)CC(F)(F)[C@@](C)(c2cc(NC(=O)c3ccc(C(F)(F)F)cn3)ccc2F)N=C1N
2: Cc1nc(C(=O)Nc2ccc(F)c([C@@]3(C)N=C(N)[C@@](C)(F)CC3(F)F)c2)c(C)o1
Request: Between item 1 and item 2 , which reported Ki is smaller? Answer by quoting the chosen item's label.
Response: 2
(2: 65 nM, 1: 170 nM)

a: C[C@@]1(F)CC(F)(F)[C@@](C)(c2cc(NC(=O)c3nccs3)ccc2F)N=C1N
b: C[C@]1(F)CC(F)(F)[C@@](C)(c2cc(NC(=O)c3ccc(C(F)(F)F)cn3)ccc2F)N=C1N
Request: Between item a and item b , which reported Ki is smaller? Answer by quoting the chosen item's label.
Response: b
(b: 63 nM, a: 390 nM)

A: C[C@]1(F)CC(F)(F)[C@@](C)(c2cc(NC(=O)c3ccc(Cl)cn3)ccc2F)N=C1N
B: Cc1nc(C(=O)Nc2ccc(F)c([C@@]3(C)N=C(N)[C@@](C)(F)CC3(F)F)c2)co1
Request: Between item A and item B , which reported Ki is smaller? Answer by quoting the chosen item's label.
Response: A
(A: 12 nM, B: 33 nM)

A: COc1ccc(C(=O)Nc2ccc(F)c([C@@]3(C)N=C(N)[C@@](C)(F)CC3(F)F)c2)nc1
B: C[C@@]1(F)CC(F)(F)[C@@](C)(c2cc(NC(=O)c3nc(CF)co3)ccc2F)N=C1N
C: Cc1csc(C(=O)Nc2ccc(F)c([C@@]3(C)N=C(N)[C@@](C)(F)CC3(F)F)c2)n1
Request: Ordering: ascending Ki. Note for the reader: the ranking is given by listing the labels in the order requested.
Response: A, C, B
